pIC50 by entry:
# Tested on: K562 cells
# experiment notes: Cell viability in cell lines with constitutive activation of STAT5 (Almar Blue)
# Type: cell-based
# conditions used: Homo sapiens
pIC50: −log10 of the molar value.
metric: pIC50

• Cc1cc(C)c(S(=O)(=O)N(C)CC(=O)N(Cc2ccc(C3CCCCC3)cc2)c2ccc(C(=O)O)c(O)c2)c(C)c1 [Compound 45b] = 4.10
• CN(CC(=O)N(Cc1ccc(C2CCCCC2)cc1)c1ccc(C(=O)O)c(O)c1)S(=O)(=O)c1ccc(-c2ccccc2)cc1 [Compound 45c] = 4.38
• COC(=O)c1cccc(-c2ccc(-c3ccc(CN(C(=O)CN(C)S(=O)(=O)c4ccc(C)cc4)c4ccc(C(=O)O)c(O)c4)cc3)cc2)c1 [Compound 27na] = 4.62

====

# study system: STAT3 (Homo sapiens (Human), UniProt P40763)
# Sequence (P40763 whole entry): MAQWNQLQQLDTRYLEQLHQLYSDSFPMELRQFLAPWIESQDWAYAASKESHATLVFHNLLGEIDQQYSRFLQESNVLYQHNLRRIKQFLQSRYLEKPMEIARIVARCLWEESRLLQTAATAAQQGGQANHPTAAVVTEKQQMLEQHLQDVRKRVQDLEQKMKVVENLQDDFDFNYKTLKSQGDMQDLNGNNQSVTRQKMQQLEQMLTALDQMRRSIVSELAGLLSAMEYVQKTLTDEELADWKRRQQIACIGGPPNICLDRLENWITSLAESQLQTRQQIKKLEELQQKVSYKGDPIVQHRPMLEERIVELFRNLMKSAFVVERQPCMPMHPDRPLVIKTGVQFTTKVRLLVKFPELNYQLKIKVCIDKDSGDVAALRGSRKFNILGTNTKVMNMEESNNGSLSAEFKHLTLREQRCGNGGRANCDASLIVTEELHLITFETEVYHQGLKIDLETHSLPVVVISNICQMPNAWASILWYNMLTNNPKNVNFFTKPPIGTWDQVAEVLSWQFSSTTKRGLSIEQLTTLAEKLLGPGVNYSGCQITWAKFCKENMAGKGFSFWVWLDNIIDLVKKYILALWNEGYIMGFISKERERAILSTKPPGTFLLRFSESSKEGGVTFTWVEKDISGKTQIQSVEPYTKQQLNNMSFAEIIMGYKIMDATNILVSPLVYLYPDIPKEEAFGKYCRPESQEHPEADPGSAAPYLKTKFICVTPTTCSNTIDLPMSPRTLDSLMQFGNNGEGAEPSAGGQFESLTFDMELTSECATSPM
pKi: −log10 of the molar value.
Label 1 (yes) when pKi is at or above 5; anything below gets 0 (no).

• Cc1ccc(S(=O)(=O)N(CC(=O)N(Cc2ccc(C3CCCCC3)cc2)c2ccc(C(=O)O)c(O)c2)Cc2cccc(F)c2)cc1 = 1 (yes)
• Cc1ccc(S(=O)(=O)N(CC(=O)N(Cc2ccc(C3CCCCC3)cc2)c2ccc(C(=O)O)c(O)c2)Cc2ccc(F)cc2)cc1 = 1 (yes)
• Cc1ccc(S(=O)(=O)N(CC(=O)N(Cc2ccc(C3CCCCC3)cc2)c2ccc(C(=O)O)c(O)c2)Cc2ccc(C(F)(F)F)cc2)cc1 = 1 (yes)
• CN(CC(=O)N(Cc1ccc(C2CCCCC2)cc1)c1ccc(C(=O)O)c(O)c1)S(=O)(=O)c1cccc2cccnc12 [Compound 45F] = 0 (no)
• Cc1ccc(S(=O)(=O)N(CC(=O)N(Cc2ccc(C3CCCCC3)cc2)c2ccc(C(=O)O)c(O)c2)Cc2ccncc2)cc1 = 0 (no)
• Cc1ccc(S(=O)(=O)N(CC(=O)N(Cc2ccc(C3CCCCC3)cc2)c2ccc(C(=O)O)c(O)c2)Cc2ccccc2[N+](=O)[O-])cc1 = 1 (yes)
• Cc1ccc(S(=O)(=O)N(CC(=O)N(Cc2ccc(C3CCCCC3)cc2)c2ccc(C(=O)O)c(O)c2)Cc2ccccc2C(F)(F)F)cc1 = 1 (yes)
• Cc1ccc(S(=O)(=O)N(C)CC(=O)N(Cc2ccc(-c3ccc(-c4ccc(C(N)=O)cc4)cc3)cc2)c2ccc(C(=O)O)c(O)c2)cc1 [Compound 27NH] = 0 (no)
• Cc1ccc(S(=O)(=O)N(CC(=O)N(Cc2ccc(C3CCCCC3)cc2)c2ccc(C(=O)O)c(O)c2)Cc2ccccn2)cc1 = 0 (no)
• Cc1ccc(S(=O)(=O)N(CC(=O)N(Cc2ccc(C3CCCCC3)cc2)c2ccc(C(=O)O)c(O)c2)Cc2cccc(C#N)c2)cc1 = 1 (yes)
• COC(=O)c1ccc(CN(CC(=O)N(Cc2ccc(C3CCCCC3)cc2)c2ccc(C(=O)O)c(O)c2)S(=O)(=O)c2ccc(C)cc2)cc1 = 1 (yes)
• Cc1ccc(S(=O)(=O)N(CC(=O)N(Cc2ccc(C3CCCCC3)cc2)c2ccc(C(=O)O)c(O)c2)Cc2ccc(OC(F)(F)F)cc2)cc1 = 1 (yes)
• Cc1ccc(S(=O)(=O)N(CC(=O)N(Cc2ccc(C3CCCCC3)cc2)c2ccc(C(=O)O)c(O)c2)Cc2ccc(C#N)cc2)cc1 = 1 (yes)
• Cc1ccc(S(=O)(=O)N(CC(=O)N(Cc2ccc(C3CCCCC3)cc2)c2ccc(C(=O)O)c(O)c2)Cc2cccc([N+](=O)[O-])c2)cc1 = 1 (yes)
• Cc1ccc(S(=O)(=O)N(CC(=O)N(Cc2ccc(C3CCCCC3)cc2)c2ccc(C(=O)O)c(O)c2)Cc2ccccc2F)cc1 = 1 (yes)
• Cc1ccc(S(=O)(=O)N(C)CC(=O)N(Cc2ccc(C3CCN(C(=O)OC(C)(C)C)CC3)cc2)c2ccc(C(=O)O)c(O)c2)cc1 [Compound 27KC] = 0 (no)
• Cc1ccc(S(=O)(=O)N(C)CC(=O)N(Cc2ccc(C3CCN(S(=O)(=O)c4ccc(C#N)cc4)CC3)cc2)c2ccc(C(=O)O)c(O)c2)cc1 [Compound 27KG] = 0 (no)
• Cc1ccc(S(=O)(=O)N(CC(=O)N(Cc2ccc(C3CCCCC3)cc2)c2ccc(C(=O)O)c(O)c2)Cc2ccccc2C)cc1 = 1 (yes)
• Cc1ccc(S(=O)(=O)N2CCC[C@@H]2C(=O)N(Cc2ccc(C3CCCCC3)cc2)c2ccc(C(=O)O)c(O)c2)cc1 = 0 (no)
• CN(CC(=O)N(Cc1ccc(C2CCCCC2)cc1)c1ccc(C(=O)O)c(O)c1)S(=O)(=O)c1cccc2ccccc12 [Compound 45E] = 0 (no)
• Cc1ccc(S(=O)(=O)N(CC(=O)N(Cc2ccc(C3CCCCC3)cc2)c2ccc(C(=O)O)c(O)c2)Cc2ccc(F)cc2C(F)(F)F)cc1 = 1 (yes)

====

# study system: STAT3 (Mus musculus, UniProt P42227)
# Sequence (P42227 2-770 limits assumed): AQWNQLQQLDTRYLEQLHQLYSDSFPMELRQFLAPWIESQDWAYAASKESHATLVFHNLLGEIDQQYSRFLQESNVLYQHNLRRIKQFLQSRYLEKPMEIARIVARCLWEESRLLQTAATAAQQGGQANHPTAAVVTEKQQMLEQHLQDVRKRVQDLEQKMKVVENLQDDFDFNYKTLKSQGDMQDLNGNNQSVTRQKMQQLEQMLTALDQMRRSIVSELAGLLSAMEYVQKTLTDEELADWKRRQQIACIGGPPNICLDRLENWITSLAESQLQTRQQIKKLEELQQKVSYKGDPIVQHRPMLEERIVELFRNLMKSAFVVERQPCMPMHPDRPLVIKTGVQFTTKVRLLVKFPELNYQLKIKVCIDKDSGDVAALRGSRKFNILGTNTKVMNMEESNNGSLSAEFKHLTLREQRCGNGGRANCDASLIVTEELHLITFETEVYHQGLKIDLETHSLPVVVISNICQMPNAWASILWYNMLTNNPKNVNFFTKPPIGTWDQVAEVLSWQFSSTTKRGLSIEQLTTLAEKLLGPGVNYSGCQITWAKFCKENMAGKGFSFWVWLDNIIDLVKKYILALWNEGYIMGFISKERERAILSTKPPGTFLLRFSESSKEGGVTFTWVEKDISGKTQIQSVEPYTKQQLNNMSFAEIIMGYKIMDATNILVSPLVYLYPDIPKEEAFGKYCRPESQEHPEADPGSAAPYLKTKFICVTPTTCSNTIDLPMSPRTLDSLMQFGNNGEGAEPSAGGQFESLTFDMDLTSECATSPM
# experiment notes: Stat3 DNA-binding activity, electrophoretic mobility shift assay (EMSA) with nuclear extracts
# Format: biochemical
metric: IC50 (µM)

* Cc1ccc(S(=O)(=O)N(C)CC(=O)N(Cc2ccc(-c3ccc(-c4ccc(C(N)=O)cc4)cc3)cc2)c2ccc(C(=O)O)c(O)c2)cc1 [Compound 27NH] | 43

====

# System: OCI-AMI.2 cells
# experiment notes: Cell viability, MTS assay
# Format: cell-based
IC50 by entry:
metric: IC50

• Cc1ccc(S(=O)(=O)N(C)CC(=O)N(Cc2ccc(-c3ccc(-c4ccc(C#N)cc4)cc3)cc2)c2ccc(C(=O)O)c(O)c2)cc1 [Compound 27NG] = 58.4 µM
• CN(CC(=O)N(Cc1ccc(C2CCCCC2)cc1)c1ccc(C(=O)O)c(O)c1)S(=O)(=O)c1ccc([N+](=O)[O-])cc1 [Compound 45N] = 96.3 µM
• CN(CC(=O)N(Cc1ccc(C2CCCCC2)cc1)c1ccc(C(=O)O)c(O)c1)S(=O)(=O)c1ccc2ccccc2c1 [Compound 45D] = 93.5 µM
• Cc1ccc(S(=O)(=O)N(C)CC(=O)N(Cc2ccc(-c3ccc(-c4cccc(C#N)c4)cc3)cc2)c2ccc(C(=O)O)c(O)c2)cc1 [Compound 27NC] = > 100 µM
• CN(CC(=O)N(Cc1ccc(C2CCCCC2)cc1)c1ccc(C(=O)O)c(O)c1)S(=O)(=O)c1ccc(F)cc1 [Compound 45L] = 84.4 µM
• Cc1ccc(S(=O)(=O)N(C)CC(=O)N(Cc2ccc(C3CCN(S(=O)(=O)c4ccc(C#N)cc4)CC3)cc2)c2ccc(C(=O)O)c(O)c2)cc1 [Compound 27KG] = > 100 µM
• COC(=O)c1cccc(-c2ccc(-c3ccc(CN(C(=O)CN(C)S(=O)(=O)c4ccc(C)cc4)c4ccc(C(=O)O)c(O)c4)cc3)cc2)c1 [Compound 27na] = 35.1 µM
• COc1ccc(S(=O)(=O)N(C)CC(=O)N(Cc2ccc(C3CCCCC3)cc2)c2ccc(C(=O)O)c(O)c2)cc1 [Compound 45M] = > 100 µM
• CN(CC(=O)N(Cc1ccc(C2CCCCC2)cc1)c1ccc(C(=O)O)c(O)c1)S(=O)(=O)c1ccc(-c2ccccc2)cc1 [Compound 45c] = 95.4 µM
• CN(CC(=O)N(Cc1ccc(C2CCCCC2)cc1)c1ccc(C(=O)O)c(O)c1)S(=O)(=O)c1cn(C)cn1 [Compound 45H] = > 100 µM
• Cc1cccc(S(=O)(=O)N(C)CC(=O)N(Cc2ccc(C3CCCCC3)cc2)c2ccc(C(=O)O)c(O)c2)c1 [Compound 45A] = 85.9 µM
• CN(C)c1cccc2c(S(=O)(=O)N(C)CC(=O)N(Cc3ccc(C4CCCCC4)cc3)c3ccc(C(=O)O)c(O)c3)cccc12 [Compound 45G] = > 100 µM
• CN(CC(=O)N(Cc1ccc(C2CCCCC2)cc1)c1ccc(C(=O)O)c(O)c1)S(=O)(=O)c1cccc2cccnc12 [Compound 45F] = > 100 µM
• CN(CC(=O)N(Cc1ccc(C2CCCCC2)cc1)c1ccc(C(=O)O)c(O)c1)S(=O)(=O)c1ccc(Br)cc1 [Compound 45J] = 44.9 µM
• CN(CC(=O)N(Cc1ccc(C2CCCCC2)cc1)c1ccc(C(=O)O)c(O)c1)S(=O)(=O)c1ccc(Cl)cc1 [Compound 45K] = 76.4 µM
• Cc1cc(C)c(S(=O)(=O)N(C)CC(=O)N(Cc2ccc(C3CCCCC3)cc2)c2ccc(C(=O)O)c(O)c2)c(C)c1 [Compound 45b] = 65.4 µM
• COC(=O)c1ccc(-c2ccc(-c3ccc(CN(C(=O)CN(C)S(=O)(=O)c4ccc(C)cc4)c4ccc(C(=O)O)c(O)c4)cc3)cc2)cc1 [Compound 27NE] = > 100 µM
• CN(CC(=O)N(Cc1ccc(C2CCCCC2)cc1)c1ccc(C(=O)O)c(O)c1)S(=O)(=O)c1cccc2ccccc12 [Compound 45E] = 33.3 µM
• Cc1ccc(S(=O)(=O)N(C)CC(=O)N(Cc2ccc(-c3ccc(C(=O)O)cc3)cc2)c2ccc(C(=O)O)c(O)c2)cc1 [Compound 27LE] = 76.7 µM
• CN(CC(=O)N(Cc1ccc(C2CCCCC2)cc1)c1ccc(C(=O)O)c(O)c1)S(=O)(=O)c1ccc(C#N)cc1 [Compound 45I] = 53.5 µM
